target: Proteasome subunit beta (Trypanosoma cruzi); assay: Trypanosoma cruzi proteasome chymotrypsin-like activity (TcProtChymo) assay.; format: functional; parameters: scale not given: in the data most compounds retested in dose-response had high values; settings: 9.37 µM
# Lookup of reported Percent Effect keyed by entry
The figure you give is taken to be in %; do not add the unit.

Observe how each entry below is paired with its result.
molecule=Cc1cc(C(=O)N2CC[C@@H]3CN(c4ncccn4)CCO[C@@H]3C2)c(C)o1 target_desc="Proteasome subunit beta (Trypanosoma cruzi)" numeric_value=29
molecule="Cc1nc(C)n(C2CCCN(C(=O)c3sccc3C3CC3)C2)n1 (stereo not drawn)" target_desc="Proteasome subunit beta (Trypanosoma cruzi)" numeric_value=0.409
molecule=CCCN(Cc1ccccc1)Cn1nc(C)c2c(C)onc2c1=O target_desc="Proteasome subunit beta (Trypanosoma cruzi)" numeric_value=1.98
molecule=Cc1ccn(-c2ccccc2NCc2ncc[nH]2)n1 target_desc="Proteasome subunit beta (Trypanosoma cruzi)" numeric_value=9.41
molecule="CCCOc1ccc(CNC(=O)N2CCC(C(N)=O)C2)cc1 (stereo not drawn)" target_desc="Proteasome subunit beta (Trypanosoma cruzi)" numeric_value=5.82

Give the measured Percent Effect of COCCN1CC[C@@H]2OC[C@H](C(=O)NCc3cccs3)C[C@@H]2C1 .
8.3

Give the measured Percent Effect of CC(C)Nc1ncc(CN2C[C@@H](CN3CCC(O)CC3)[C@@H](CO)C2)cn1 .
12.2

Give the measured Percent Effect of Cc1nc(NCCc2ccc(Cl)cc2)cc(C(=O)N2CCOCC2)n1 .
9.98

Give the measured Percent Effect of COCC1c2c(cnn2CC2CCOCC2)CCN1Cc1ccoc1 (stereo not drawn) .
16

Give the measured Percent Effect of c1csc(-c2nc(CN3CCOC(Cn4cncn4)C3)co2)c1 (stereo not drawn) .
20.4

Give the measured Percent Effect of CCC1CN(CC(=O)N2CCC2)CCN1CCOC (stereo not drawn) .
7.03

Give the measured Percent Effect of CCN(CC)C(=O)Nc1cc2c(cc1SC)OCCO2 .
3.47

Give the measured Percent Effect of O=S(=O)(Cc1ccccc1F)NCCCN1CCCCC1 .
3.49

###

target: Tyrosyl-tRNA synthetase, putative (Trypanosoma cruzi (strain CL Brener)) (UniProt Q4DSP6); assay: Trypanosoma cruzi tyrosyl tRNA synthetase (TcYRS) SOP; assay type: functional; parameters: scale not given: direction of the effect not stated beside the values; conditions: 30 µM
Sequence (Q4DSP6 as listed by the source): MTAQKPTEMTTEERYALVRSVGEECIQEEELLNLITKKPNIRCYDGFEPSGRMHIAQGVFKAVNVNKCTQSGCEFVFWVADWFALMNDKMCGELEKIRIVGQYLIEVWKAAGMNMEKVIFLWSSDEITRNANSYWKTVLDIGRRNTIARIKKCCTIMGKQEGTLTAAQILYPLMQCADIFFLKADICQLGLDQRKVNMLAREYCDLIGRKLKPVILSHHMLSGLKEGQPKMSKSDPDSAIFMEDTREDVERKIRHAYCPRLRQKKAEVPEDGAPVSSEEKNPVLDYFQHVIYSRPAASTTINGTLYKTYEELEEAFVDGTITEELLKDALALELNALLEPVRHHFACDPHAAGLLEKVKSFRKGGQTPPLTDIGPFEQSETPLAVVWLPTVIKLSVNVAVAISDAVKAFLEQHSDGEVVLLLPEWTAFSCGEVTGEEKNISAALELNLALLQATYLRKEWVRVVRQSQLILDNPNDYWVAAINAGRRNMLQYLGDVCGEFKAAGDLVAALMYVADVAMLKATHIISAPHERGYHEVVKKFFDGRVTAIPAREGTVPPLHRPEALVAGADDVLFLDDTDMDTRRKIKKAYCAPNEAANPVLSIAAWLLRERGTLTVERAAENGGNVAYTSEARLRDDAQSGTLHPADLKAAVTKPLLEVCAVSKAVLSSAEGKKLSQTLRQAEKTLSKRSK
property measured: Percent Effect (%)
The figure you give is taken to be in %; do not add the unit.

Observe how each entry below is paired with its result.
compound="O=C(c1cnc(C2CC2)s1)N1CCCCC1Cn1cccn1 (configuration not stated)" property_measured="Percent Effect" unit_annotation=% numeric_value=7.59
compound=O=C(c1cnco1)N1C[C@@H]2CC[C@H](Oc3ccccc3F)[C@@H]2C1 property_measured="Percent Effect" unit_annotation=% numeric_value=-9.09
compound="Cc1nn(C)c(Cl)c1C1CCCN1CC(=O)NCc1ccccn1 (configuration not stated)" property_measured="Percent Effect" unit_annotation=% numeric_value=10.1
compound="O=C(NCc1cccnc1)C1=NOC2(CCN(S(=O)(=O)C3CC3)C2)C1 (configuration not stated)" property_measured="Percent Effect" unit_annotation=% numeric_value=2.5
compound="O=C(CN1CCCC1Cn1cncn1)NC(C1CC1)C1CC1 (configuration not stated)" property_measured="Percent Effect" unit_annotation=% numeric_value=0
compound="Cc1nc(CCN(C)C(=O)C2COc3ccccc3C2)no1 (configuration not stated)" property_measured="Percent Effect" unit_annotation=% numeric_value=13.6

For the next question, use this compound.
What value of Percent Effect on Tyrosyl-tRNA synthetase, putative (Trypanosoma cruzi (strain CL Brener)) (UniProt Q4DSP6) does CN(Cc1ccccc1F)C(=O)CS(=O)(=O)Cc1ccc(Cl)c(Cl)c1 have?
-296

###

biological target: Tyrosyl-tRNA synthetase, putative (Trypanosoma cruzi (strain CL Brener)); assay: Trypanosoma cruzi tyrosyl tRNA synthetase (TcYRS) SOP; type: functional; set-up: scale not given: direction of the effect not stated beside the values; conditions: 30 µM
property measured: Percent Effect

Observe how each entry below is paired with its result.
compound="CCC(NC(=O)C1CCN(S(C)(=O)=O)CC1)c1ccc(OC)c(C)c1 (stereo not given)" property_measured="Percent Effect" result=1.24%
compound=O=C(NC1CC1)[C@H]1C[C@H]2OCC[C@H]2N(CC2CCOCC2)C1 property_measured="Percent Effect" result=-2.5%
compound="CCc1cnc(N2CCC(=O)N(CC3CC3)C(C(C)C)C2)nc1 (stereo not given)" property_measured="Percent Effect" result=12.2%
compound="CCC(C)c1noc(C2CCN(C(=O)c3cccnc3)CC2)n1 (stereo not given)" property_measured="Percent Effect" result=11.1%

What value of Percent Effect on Tyrosyl-tRNA synthetase, putative (Trypanosoma cruzi (strain CL Brener)) does Oc1cc(CCC2CCCCN2)cc(-c2ccncc2)c1 (stereo not given) have?
7.5%

What value of Percent Effect on Tyrosyl-tRNA synthetase, putative (Trypanosoma cruzi (strain CL Brener)) does Cn1cc(C(=O)NCc2cn3c(n2)CN(Cc2ccccn2)CC3)cn1 have?
8.54%

What value of Percent Effect on Tyrosyl-tRNA synthetase, putative (Trypanosoma cruzi (strain CL Brener)) does O=C(CC1CCCCC1)N1CCN(C(=O)NCc2ccccn2)CC1 have?
-16.5%

What value of Percent Effect on Tyrosyl-tRNA synthetase, putative (Trypanosoma cruzi (strain CL Brener)) does Cc1nc(C)n(CC2CCCN(c3ncnc4[nH]ccc34)C2)n1 (stereo not given) have?
5.06%

What value of Percent Effect on Tyrosyl-tRNA synthetase, putative (Trypanosoma cruzi (strain CL Brener)) does CCOc1ccc(Cl)c(C(=O)N2CCN(c3cnccn3)CC2)n1 have?
24.4%

###

biological target: Protein translocase subunit SecA (Escherichia coli (strain K12)) (UniProt P10408); assay: Assay to Identify E. coli SecA ATPase Inhibitors; type: functional; design: scale not given: direction of the effect not stated beside the values; conditions: 30 µM
Sequence (P10408 whole entry): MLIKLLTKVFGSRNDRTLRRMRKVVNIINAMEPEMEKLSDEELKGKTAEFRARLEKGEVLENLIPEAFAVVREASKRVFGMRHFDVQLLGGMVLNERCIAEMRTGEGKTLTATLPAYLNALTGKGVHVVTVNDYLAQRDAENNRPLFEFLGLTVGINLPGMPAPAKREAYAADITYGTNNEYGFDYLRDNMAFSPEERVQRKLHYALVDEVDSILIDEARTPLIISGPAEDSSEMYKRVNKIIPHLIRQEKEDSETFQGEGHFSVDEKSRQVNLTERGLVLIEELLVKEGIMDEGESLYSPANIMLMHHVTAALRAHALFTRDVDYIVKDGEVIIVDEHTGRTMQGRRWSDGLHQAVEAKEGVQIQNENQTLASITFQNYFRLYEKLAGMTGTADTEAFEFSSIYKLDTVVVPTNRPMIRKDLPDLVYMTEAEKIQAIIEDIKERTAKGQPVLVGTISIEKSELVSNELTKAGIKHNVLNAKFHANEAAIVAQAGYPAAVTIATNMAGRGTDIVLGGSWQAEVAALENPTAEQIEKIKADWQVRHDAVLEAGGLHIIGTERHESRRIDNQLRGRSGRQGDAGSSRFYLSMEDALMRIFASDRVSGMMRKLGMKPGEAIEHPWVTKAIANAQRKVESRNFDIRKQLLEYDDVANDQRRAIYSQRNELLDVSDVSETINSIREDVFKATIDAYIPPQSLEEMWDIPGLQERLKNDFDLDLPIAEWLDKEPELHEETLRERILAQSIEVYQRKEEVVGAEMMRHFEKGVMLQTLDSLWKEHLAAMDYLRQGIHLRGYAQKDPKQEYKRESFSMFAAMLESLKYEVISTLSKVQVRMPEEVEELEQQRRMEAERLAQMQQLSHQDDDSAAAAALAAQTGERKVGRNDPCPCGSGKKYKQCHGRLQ
Measured potencies and affinities stand elsewhere.
# Lookup of reported Percent Effect keyed by entry

Give the measured Percent Effect of CC(C)c1nn(C)c(N(C)C)c1CNCCC(=O)NC1CCCC1 .
-6.71%

Give the measured Percent Effect of CCCn1nc(C2CCNCC2)n(Cc2ccccc2)c1=O .
-2.26%

Give the measured Percent Effect of O=C(c1cccnc1)N1C[C@@H]2CC[C@H](C1)N(Cc1cccc(Cl)c1F)C2 .
-2.44%

Give the measured Percent Effect of Clc1snnc1CN1CCCC(Cn2cncn2)C1 (stereo not drawn) .
-1.77%

Give the measured Percent Effect of Cc1ccc2cc(CNCCCO)c(=O)[nH]c2c1 .
2.35%

Give the measured Percent Effect of COCC(c1cccc(C(F)(F)F)c1)N(C)C(=O)c1ccncc1 (stereo not drawn) .
-4.42%

Give the measured Percent Effect of c1ccc(-c2cnc(CN3CCn4c(nnc4C4CC4)C3)o2)cc1 .
3.62%

Give the measured Percent Effect of CCc1nnc2n1CCN(C(=O)c1ccc(C(F)(F)F)nc1C)C2 .
-6.11%

Give the measured Percent Effect of CC(NC(=O)C1=NN(C)C(=O)CC1)c1ccc(F)cc1F (stereo not drawn) .
-1.15%

Give the measured Percent Effect of CC(Cn1cncn1)NCc1nncn1C1CCCCC1 (stereo not drawn) .
-0.337%

Give the measured Percent Effect of O=C(c1ccccn1)N1CCc2nc(-c3cnccn3)nc(O)c2C1 .
0.65%

Give the measured Percent Effect of CC(C)c1nn(C)c(Cl)c1CNCC(O)c1cccc(F)c1 (stereo not drawn) .
-7.69%

Give the measured Percent Effect of Cc1noc(C)c1C(=O)NCC(c1ccc(F)cc1)N(C)C (stereo not drawn) .
-3.62%

Give the measured Percent Effect of CSc1ccc(NS(=O)(=O)c2cnn(C)c2)cn1 .
-5.12%

Give the measured Percent Effect of Cn1cc(N2CCCC(NCc3cccc4c3OCCCO4)C2)cn1 (stereo not drawn) .
-4.17%

Give the measured Percent Effect of CN(Cc1ccncc1)C(=O)Nc1cnn(CC2CCCO2)c1 (stereo not drawn) .
0.7%

Give the measured Percent Effect of CO[C@@H]1CC[C@H]2[C@H]1OCCN2C(=O)C1=CCCC1 .
-3.13%

Give the measured Percent Effect of COCCC(=O)N1CCN(CCN(C)C)c2ncccc2C1 .
-3.66%

Give the measured Percent Effect of NC(=O)C1CN(C(=O)Nc2ccccc2SC(F)(F)F)CCO1 (stereo not drawn) .
-2.59%

Give the measured Percent Effect of CSCCCN1CCn2nc(CNC(C)=O)cc2C1 .
-4.2%

Give the measured Percent Effect of Cc1cc(C)n(CCC(=O)N2CCC(c3nc(C(C)C)no3)CC2)n1 .
-2.78%

###

molecular target: Chromo domain-containing protein 1 (Saccharomyces cerevisiae (strain ATCC 204508 / S288c) (Baker's yeast)) (UniProt P32657); assay: ScCHD-1 Enzyme Inhibition Assay; format: functional; set-up: scale not given: in the data most compounds retested in dose-response had high values; settings: 30 µM
Sequence (P32657 whole entry, the tested form may be a part): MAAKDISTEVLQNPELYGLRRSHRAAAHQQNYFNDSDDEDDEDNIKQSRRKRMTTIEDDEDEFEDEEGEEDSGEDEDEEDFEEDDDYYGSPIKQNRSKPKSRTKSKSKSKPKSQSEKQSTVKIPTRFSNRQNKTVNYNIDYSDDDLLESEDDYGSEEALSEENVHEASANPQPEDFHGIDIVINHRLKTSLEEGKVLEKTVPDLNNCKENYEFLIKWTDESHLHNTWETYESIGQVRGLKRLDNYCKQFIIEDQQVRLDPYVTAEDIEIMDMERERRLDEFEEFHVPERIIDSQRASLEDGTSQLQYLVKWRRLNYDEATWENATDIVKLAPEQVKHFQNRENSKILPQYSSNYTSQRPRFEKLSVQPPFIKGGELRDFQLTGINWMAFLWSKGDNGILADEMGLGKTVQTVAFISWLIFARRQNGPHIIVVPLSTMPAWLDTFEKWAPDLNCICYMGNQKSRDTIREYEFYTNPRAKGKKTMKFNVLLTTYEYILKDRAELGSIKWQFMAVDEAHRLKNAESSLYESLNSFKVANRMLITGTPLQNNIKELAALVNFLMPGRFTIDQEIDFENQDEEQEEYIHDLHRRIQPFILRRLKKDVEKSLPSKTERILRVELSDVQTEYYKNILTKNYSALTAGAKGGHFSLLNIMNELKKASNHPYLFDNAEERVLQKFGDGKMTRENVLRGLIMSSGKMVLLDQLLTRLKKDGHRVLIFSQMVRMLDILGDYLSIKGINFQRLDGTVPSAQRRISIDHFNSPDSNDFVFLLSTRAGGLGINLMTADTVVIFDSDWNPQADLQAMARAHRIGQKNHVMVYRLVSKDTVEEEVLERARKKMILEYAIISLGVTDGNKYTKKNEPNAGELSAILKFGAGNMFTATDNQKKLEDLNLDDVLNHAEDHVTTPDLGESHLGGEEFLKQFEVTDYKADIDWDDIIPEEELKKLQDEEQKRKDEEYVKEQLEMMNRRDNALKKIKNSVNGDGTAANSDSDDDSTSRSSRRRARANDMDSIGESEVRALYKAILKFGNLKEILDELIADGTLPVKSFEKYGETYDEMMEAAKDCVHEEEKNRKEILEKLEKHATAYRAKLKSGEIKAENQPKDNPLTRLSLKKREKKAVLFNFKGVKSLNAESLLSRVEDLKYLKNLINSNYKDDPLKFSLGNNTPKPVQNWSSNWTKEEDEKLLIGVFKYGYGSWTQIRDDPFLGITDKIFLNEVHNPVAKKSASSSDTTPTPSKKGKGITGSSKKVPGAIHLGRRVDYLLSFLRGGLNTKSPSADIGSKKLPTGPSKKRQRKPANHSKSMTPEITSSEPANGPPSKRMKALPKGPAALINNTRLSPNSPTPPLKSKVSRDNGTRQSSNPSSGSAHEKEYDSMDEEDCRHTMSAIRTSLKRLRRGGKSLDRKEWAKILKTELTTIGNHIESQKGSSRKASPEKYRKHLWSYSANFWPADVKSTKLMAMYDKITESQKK
# Lookup of reported Percent Effect keyed by entry

molecule=OCCn1nccc1C1CCN(CCCOc2ccc(F)cc2)CC1 property_measured="Percent Effect" result=-0.509%
molecule=CN(Cc1ccsc1)C(=O)Nc1cccnc1N1CCCC1 property_measured="Percent Effect" result=-2.06%
molecule="Cc1n[nH]c(C2CN(C(=O)CCc3ccsc3)CCO2)n1 (centres undefined)" property_measured="Percent Effect" result=0.695%
molecule=Cc1ccc(NC2CCN(C(=O)c3cc[nH]n3)CC2)nn1 property_measured="Percent Effect" result=7.64%
molecule=CCS(=O)(=O)N1C[C@H]2CN(Cc3cccnc3)C(=O)[C@H]2C1 property_measured="Percent Effect" result=1.54%

For the next question, use this molecule.
Give the measured Percent Effect of CC(C)n1ccnc1C1CCCN(c2ccnc3ccccc23)C1 (centres undefined) .
-6.66%

All values here come from ChEMBL document CHEMBL3988442.
